Biological target: mTORC1 (Homo sapiens, UniProt P42345+P62942)
Construct: endogenous in cells; host or cells: PC3 cells (human prostate adenocarcinoma)
Experiment: Inhibition assay for mTORC1: phosphorylation of pS6K at Thr389, AlphaLISA SureFire in PC3 cells
Format: cell-based
Conditions: PC3 cells, 24 hours treatment, pS6K Thr389; analogs substituted at C40 and C16 (C16 diastereomer mixtures not isolated); read-out: pIC50 mTORC1 (converted)
Quantity Measured: IC50

// worked examples, IC50 included
CO[C@@H]1C[C@H](C[C@@H](C)[C@@H]2CC(=O)[C@H](C)/C=C(\C)[C@@H](O)[C@@H](OC)C(=O)[C@H](C)C[C@H](C)/C=C/C=C/C=C(\C)C(OC(C)C)C[C@@H]3CC[C@@H](C)[C@@](O)(O3)C(=O)C(=O)N3CCCCC3C(=O)O2)CC[C@H]1OC(=O)NCCc1ccccc1 (stereo partly drawn) ... 0.316 to 3.16 nM
CO[C@@H]1C[C@H](C[C@@H](C)[C@@H]2CC(=O)[C@H](C)/C=C(\C)[C@@H](O)[C@@H](OC)C(=O)[C@H](C)C[C@H](C)/C=C/C=C/C=C(\C)C(OCCO)C[C@@H]3CC[C@@H](C)[C@@](O)(O3)C(=O)C(=O)N3CCCCC3C(=O)O2)CC[C@H]1OC(=O)NCCN1CCN(C)CC1 (stereo partly drawn) ... 0.316 to 3.16 nM

Could you now look at the following molecule, please?
Give the measured IC50 of CO[C@@H]1C[C@H](C[C@@H](C)[C@@H]2CC(=O)[C@H](C)/C=C(\C)[C@@H](O)[C@@H](OC)C(=O)[C@H](C)C[C@H](C)/C=C/C=C/C=C(\C)C(OC[C@@H](O)c3ccccc3)C[C@@H]3CC[C@@H](C)[C@@](O)(O3)C(=O)C(=O)N3CCCCC3C(=O)O2)CC[C@H]1OCCCO (stereo partly drawn) . < 0.316 nM

---

Please go through the items and note down their IC50.
Biological target: mTORC2 (Homo sapiens, UniProt P42345+P62942)
Construct: endogenous in cells; host or cells: PC3 cells (human prostate adenocarcinoma)
Assay: Inhibition assay for mTORC2: phosphorylation of pAkt at Ser473, AlphaLISA SureFire in PC3 cells
Type: cell-based
Conditions: PC3 cells, 24 hours treatment, analogs substituted at C40 and C16 (C16 diastereomer mixtures not isolated), read-out: pIC50 mTORC2 (converted)

CO[C@@H]1C[C@H](C[C@@H](C)[C@@H]2CC(=O)[C@H](C)/C=C(\C)[C@@H](O)[C@@H](OC)C(=O)[C@H](C)C[C@H](C)/C=C/C=C/C=C(\C)C(OCCO)C[C@@H]3CC[C@@H](C)[C@@](O)(O3)C(=O)C(=O)N3CCCCC3C(=O)O2)CC[C@H]1OCCCN1CCOCC1 (stereo partly drawn) [Compound 55] ... 1000 to 10000 nM
CO[C@@H]1C[C@H](C[C@@H](C)[C@@H]2CC(=O)[C@H](C)/C=C(\C)[C@@H](O)[C@@H](OC)C(=O)[C@H](C)C[C@H](C)/C=C/C=C/C=C(\C)C(OCCc3ccccc3)C[C@@H]3CC[C@@H](C)[C@@](O)(O3)C(=O)C(=O)N3CCCCC3C(=O)O2)CC[C@H]1OC(=O)N(C)CCCN(C)C (stereo partly drawn) [Compound 95] ... < 1000 nM

Okay, now this compound:
Any idea what IC50 was measured for CO[C@@H]1C[C@H](C[C@@H](C)[C@@H]2CC(=O)[C@H](C)/C=C(\C)[C@@H](O)[C@@H](OC)C(=O)[C@H](C)C[C@H](C)/C=C/C=C/C=C(\C)C(OCC(C)(C)O)C[C@@H]3CC[C@@H](C)[C@@](O)(O3)C(=O)C(=O)N3CCCCC3C(=O)O2)CC[C@H]1OCCCO (stereo partly drawn) [Compound 98] ? 1000 to 10000 nM
